Collected Ki for Vasopressin V1b receptor (Homo sapiens) across several studies; molecules listed below.

Please review the following examples before continuing.
CCCN1CCC(N[C@H]2CCN(C(=O)C(c3ccccc3)n3c(=O)n(S(=O)(=O)c4ccc(OC)cc4)c4ccc(C#N)cc43)C2)CC1 (stereo partly drawn) ... < 0.1 µM
CNCc1ccc(OC)c(C2(N3C[C@H](O)C[C@H]3c3ncco3)C(=O)N(S(=O)(=O)c3ccc(OC)cc3)c3ccc(Cl)cc32)c1 (stereo partly drawn) ... < 0.01 µM
COc1ccc(S(=O)(=O)N2C(=O)C(N[C@@H](C)c3ncco3)(c3cc(CN4CCN(C)CC4)ccc3OC)c3cc(Cl)ccc32)cc1 (stereo partly drawn) ... < 0.01 µM
CCOc1ncccc1[C@]1(NC(=O)N2CCN(C3CCN(C4COC4)CC3)CC2)C(=O)N(S(=O)(=O)c2ccc(C#N)cc2)c2ccc(C#N)cc21 ... 0.001 to 0.01 µM
COc1ccc(S(=O)(=O)N2C(=O)C(c3cc(CN4CCCC4)ccc3OC)(N3CCC[C@H]3c3ncon3)c3cc(Cl)ccc32)cc1 (stereo partly drawn) ... < 0.01 µM
CCOc1ncccc1C1(NCc2ccc(N3CCN(C)CC3)cc2)C(=O)N(S(=O)(=O)c2ccc(OC)cc2)c2ccc(C#N)cc21 (stereo not drawn) ... 0.001 to 0.01 µM
CCCN1CCN(C2CCN(C(=O)C(c3cccc(OC)c3)n3c(=O)n(S(=O)(=O)c4ccc(OC)cc4)c4ccc(Cl)cc43)C2)CC1 (stereo not drawn) ... < 0.1 µM
COc1ccc(S(=O)(=O)n2c(=O)n(C(C(=O)N3CC[C@H](NC(=O)C4CCN(C)CC4)C3)c3ccccc3)c3cc(C#N)ccc32)cc1 (stereo partly drawn) ... 0.1 to 0.5 µM

// query Give reported Ki for CCOc1ncccc1[C@]1(NC(=O)N2CCC(N3CCN(C4COC4)CC3)CC2)C(=O)N(S(=O)(=O)c2ccc(OC)cc2OC)c2ccc(Cl)cc21 (Vasopressin V1b receptor (Homo sapiens))
// result 0.001 to 0.01 µM

// query Give reported Ki for COc1ccc(S(=O)(=O)N2C(=O)[C@@](NC(=O)N3CC(N4CCC(N(C)C5COC5)CC4)C3)(c3cccnc3OC)c3cc(C#N)ccc32)cc1 (Vasopressin V1b receptor (Homo sapiens))
// result 0.001 to 0.01 µM

// query Give reported Ki for C=CCNCc1ccc(OC)c(C2(N3CCC[C@H]3c3ncco3)C(=O)N(S(=O)(=O)c3ccc(OC)cc3)c3ccc(Cl)cc32)c1 (stereo partly drawn) (Vasopressin V1b receptor (Homo sapiens))
// result < 0.01 µM

// query Give reported Ki for CCOc1ncccc1C1(NC(=O)N2CCN(C3CCN(CC)CC3)CC2)C(=O)N(S(=O)(=O)c2ccc(OC)cc2OC)c2ccc(Cl)cc21 (single isomer, unassigned; (+)) (Vasopressin V1b receptor (Homo sapiens))
// result < 0.001 µM

----------
Collected pKi for Vasopressin V1b receptor (Homo sapiens, UniProt P47901) across several studies; molecules listed below.
pKi: −log10 of the molar value.

Please review the following examples before continuing.
COc1ccccc1S(=O)(=O)N1C(=O)[C@@](NC(=O)N2CC(N3CCC(N(C)C4COC4)CC3)C2)(c2cccnc2OC)c2cc(C#N)ccc21 ... 8.00 to 9.00
COc1ccc(S(=O)(=O)n2c(=O)n(CC(=O)N3CCC(N4CCN(C)CC4)CC3)c3cc(Cl)ccc32)cc1 ... 5.00 to 6.30
CCOc1ncccc1[C@]1(NC(=O)N2CCN(C3CCN(C4COC4)CC3)CC2)C(=O)N(S(=O)(=O)c2ccc(OC)c(C)c2C)c2ccc(C#N)cc21 ... 7.00 to 8.00
COc1ccc(S(=O)(=O)N2C(=O)C(c3cc(CN4CCCC4)ccc3OC)(N3CCC[C@H]3c3ncco3)c3ccc(Cl)cc32)cc1 (stereo partly shown) ... 6.00 to 7.00
COc1nc(Cl)ccc1C1(N2CCN(c3ccncc3)CC2)C(=O)N(S(=O)(=O)c2cccc3cccnc23)c2ccc(C#N)cc21 (racemic) ... 7.30 to 8.00

// query Identify the reported pKi for the following entry. O=C(C(c1ccccc1)n1c(=O)n(S(=O)(=O)c2ccsc2)c2ccc(Cl)cc21)N1CCN(c2ccncc2)CC1 (stereo not shown)
// result 6.30 to 7.00

// query Identify the reported pKi for the following entry. CCOc1ccc(OC)cc1C1(N2CC3(CC(N4CCN(C)CC4)C3)C2)C(=O)N(S(=O)(=O)c2ccc(OC)cn2)c2ccc(C#N)cc21 (racemic)
// result > 9.00

// query Identify the reported pKi for the following entry. COc1ccc(CN(C)C)cc1C1(N2CCC[C@H]2C(=O)N(C)C)C(=O)N(S(=O)(=O)c2ccc(C#N)cc2)c2ccc(Cl)cc21 (stereo partly shown)
// result 8.00 to 9.00

// query Identify the reported pKi for the following entry. COc1cc(CN2CCN(C)CC2)ccc1C1(N2C[C@H](O)C[C@H]2c2ncco2)C(=O)N(S(=O)(=O)c2ccc(C#N)cc2)c2ccc(Cl)cc21 (stereo partly shown)
// result > 8.00

// query Identify the reported pKi for the following entry. COc1ccc(S(=O)(=O)n2c(=O)n(C(C(=O)N3CCCC3)c3ccccc3)c3cc(Cl)ccc32)cc1 (stereo not shown)
// result 6.30 to 7.00

// query Identify the reported pKi for the following entry. COc1ccc(S(=O)(=O)n2c(=O)n(C(C(=O)N3CCN(c4ccncc4)CC3)c3ccccc3)c3ccc(Cl)cc32)cc1 (stereo not shown)
// result 6.30 to 7.00

// query Identify the reported pKi for the following entry. COc1ccc(S(=O)(=O)n2c(=O)n(C(C(=O)N3CCN(C4CCN(C)CC4)CC3)c3ccccc3)c3cc(C#N)ccc32)c(OC)c1 (stereo not shown)
// result 5.00 to 6.30

// query Identify the reported pKi for the following entry. CCOc1ccc(OC)cc1[C@]1(N2CC3(CN(C4CCN(C)CC4)C3)C2)C(=O)N(S(=O)(=O)c2ccc(OC)nc2)c2ccc(C#N)cc21
// result 8.00 to 9.00

----------
Collected Ki for Vasopressin V1b receptor (Homo sapiens) across several studies; compounds listed below.

// query Give reported Ki for CCOc1ccc(OC)cc1C1(N2CC3(CN(c4ccnc(C)c4)C3)C2)C(=O)N(S(=O)(=O)c2ccc(OC)cn2)c2ccc(C#N)cc21 (single isomer, unassigned; (+)) (Vasopressin V1b receptor (Homo sapiens))
// result < 1 nM

// query Give reported Ki for COc1ccc(S(=O)(=O)N2C(=O)C(c3ccccc3OC)(N3CCN(c4ccncc4)CC3)c3cc(Cl)ccc32)c(OC)c1 (stereo not drawn) (Vasopressin V1b receptor (Homo sapiens))
// result < 50 nM

// query Give reported Ki for CCOc1ncccc1[C@]1(NC(=O)N2CC(N3CCC(N(C)C4COC4)CC3)C2)C(=O)N(S(=O)(=O)c2ccc(OC)cc2OC)c2ccc(C#N)cc21 (Vasopressin V1b receptor (Homo sapiens))
// result < 1 nM

----------
Collected Ki for Vasopressin V1b receptor (Homo sapiens, UniProt P47901) across several studies; molecules listed below.

CCNCc1cc2c(c(C3(N4CCC[C@H]4c4ncco4)C(=O)N(S(=O)(=O)c4ccc(OC)cc4)c4ccc(Cl)cc43)c1)OCO2 (stereo partly drawn) ... < 0.01 µM
O=C(C(c1ccccc1)n1c(=O)n(S(=O)(=O)c2cccc3cccnc23)c2cc(Cl)c(Cl)cc21)N1CCN(c2ccncc2)CC1 (stereo not drawn) ... 0.5 to 10 µM
CCOc1ccc(OC)cc1C1(N2CCN(c3ccnc(C)c3)CC2)C(=O)N(S(=O)(=O)c2ccc(C)cn2)c2ccc(C#N)cc21 (racemic) ... 0.01 to 0.05 µM
COc1ccc(S(=O)(=O)n2c(=O)n(C(C(=O)N3CCC(c4ccncc4)C3)c3ccccc3)c3cc(Cl)ccc32)cc1 (stereo not drawn) ... 0.1 to 0.5 µM
COc1ccc(S(=O)(=O)N2C(=O)C(c3cc(CN4CCCC4)ccc3OC)(N3C[C@H](O)C[C@H]3c3ncco3)c3cc(Cl)ccc32)cc1 (stereo partly drawn) ... < 0.01 µM

// query Identify the reported Ki for the following entry. COc1ccc(S(=O)(=O)N2C(=O)C(c3cc(CN4CCN(C)CC4)ccc3OC)(N3CCC[C@H]3c3ncc(C)o3)c3cc(Cl)ccc32)cc1 (stereo partly drawn)
// result 0.01 to 0.1 µM

----------
Collected pKi for Vasopressin V1b receptor (Homo sapiens, UniProt P47901) across several studies; molecules listed below.
pKi: −log10 of the molar value.

CCOc1ncccc1C1(NC(=O)c2ccc(N3CCN(C)CC3)cc2)C(=O)N(S(=O)(=O)c2ccc(OC)cc2OC)c2ccc(C#N)cc21 (stereo not drawn) ... 8.00 to 9.00
CNCc1ccc(C2(N3C[C@H](O)C[C@H]3c3ncco3)C(=O)N(S(=O)(=O)c3ccc(C#N)cc3)c3ccc(Cl)cc32)c(OC)c1 (stereo partly drawn) ... 7.00 to 8.00

Would you kindly look at the next entry?
// query Identify the reported pKi for the following entry. COc1ccc(S(=O)(=O)N2C(=O)C(c3ccc(CN4CCCC4)cc3)(N3C[C@H](O)C[C@H]3C(=O)N(C)C)c3cc(Cl)ccc32)c(OC)c1 (stereo partly drawn)
// result 7.00 to 8.00
